All figures here come from patent US20240368243A1.

# Subject of test: … (SEQ ID NO: 1)-HLA-A*02 complex presented on antigen positive cancer cells (human)
# Assay protocol: cell-based or functional assay
Measurement name: EC50 (mel624), IFN-γ ELISPOT, activation of redirected T cells (pM)

Binder: ImmTAC molecule comprising a79 (SEQ ID NO: 7) and b76 (SEQ ID NO: 24) (TCR, part only; not given: anti-CD3 scFv, linker, TCR constants, part only) TCR alpha, part: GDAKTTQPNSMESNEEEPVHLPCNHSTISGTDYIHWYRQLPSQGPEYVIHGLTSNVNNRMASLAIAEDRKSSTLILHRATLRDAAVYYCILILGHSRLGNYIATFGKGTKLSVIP TCR beta, part: DGGITQSPKYLFRKEGQNVTLSCEQNLNHDAMYWYRQDPGQGLRLIYYSQIMGDEQKGDIAEGYSVSREKKESFPLTVTSAQKNPTAFYLCASSWWTGGSSPIRFGPGTRLTVT
Unit string: pM
Number: 17.2
//
Binder: ImmTAC molecule comprising a109 (SEQ ID NO: 8) and b46 (SEQ ID NO: 11) (TCR, part only; not given: anti-CD3 scFv, linker, TCR constants, part only) TCR alpha, part: GDAKTTQPNSMESNEEEPVHLPCNHSTISGTDYIHWYRQLPSQGPEYVIHGLTSNVNNRMASLAIAEDRKSSTLILHRATLRDAAVYYCILILGHSRLGNYQATFGKGTKLSVIP TCR beta, part: DGGITQSPKYLFRKEGQNVTLSCEQNLNHDAMYWYRQDPGQGLRLIYYSQIMGDEQKGDIAEGYSVSREKKESFPLTVTSAQKNPTAFYLCASSWWTGGSAPIRFGPGTRLTVT
Unit string: pM
Number: 60.1
//
Binder: ImmTAC molecule comprising a28 (SEQ ID NO: 6) and b58 (SEQ ID NO: 21) (TCR, part only; not given: anti-CD3 scFv, linker, TCR constants, part only) TCR alpha, part: GDAKTTQPNSMESNEEEPVHLPCNHSTISGTDYIHWYRQLPSQGPEYVIHGLTSNVNNRMASLAIAEDRKSSTLILHRATLRDAAVYYCILILGHSRAGNYIATFGKGTKLSVIP TCR beta, part: DGGITQSPKYLFRKEGQNVTLSCEQNLNHDAMYWYRQDPGQGLRLIYYSQIMGDEQKGDIAEGYSVSREKKESFPLTVTSAQKNPTAFYLCASSWWTGGSSPISFGPGTRLTVT
Unit string: pM
Number: 12
